test system: HeLa; assay: MALAT1 nuclear FISH intensity, robust Z-score vs DMSO; higher = more nuclear MALAT1 lncRNA, active = -3 or less; details: 10 µM; 6 h;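 also: High-content confocal imaging of branched-DNA amplified FISH in 384-well plates, Hoechst-defined nuclei, score is well value minus plate DMSO median over DMSO robust SD, four wells per compound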
endpoint: MALAT1 nuclear FISH intensity

Please review the entries below; each comes with its answer.
| compound | system | reportedMeasurement |
| --- | --- | --- |
| COc1cc(C(=O)NS(=O)(=O)c2ccccc2C)ccc1Cc1cn(C)c2ccc(NC(=O)OC3CCCC3)cc12 [Zafirlukast] | HeLa | 0.491 (inactive) |
| O=C1NCN(c2ccccc2)C12CCN(CCCC(c1ccc(F)cc1)c1ccc(F)cc1)CC2 [Fluspirilene] | HeLa | 1.28 (inactive) |
| NC(=O)c1ccc(-c2nc(-c3ccccn3)c(-c3ccc4c(c3)OCO4)[nH]2)cc1 | HeLa | 0.3 (inactive) |

Note: attention shifts to another entry.
Recorded MALAT1 nuclear FISH intensity for C[C@@H]1O[C@@H]1P(=O)(O)O [Fosfomycin Calcium] , please? -0.291 (inactive)
